Target: T1, rat GIP receptor (rGIPr) (Rattus norvegicus, UniProt P43219)
T1 construct: expressed in transfected cells; host or cells: HEK293s or CHO cells
T1 sequence (P43219 19-455): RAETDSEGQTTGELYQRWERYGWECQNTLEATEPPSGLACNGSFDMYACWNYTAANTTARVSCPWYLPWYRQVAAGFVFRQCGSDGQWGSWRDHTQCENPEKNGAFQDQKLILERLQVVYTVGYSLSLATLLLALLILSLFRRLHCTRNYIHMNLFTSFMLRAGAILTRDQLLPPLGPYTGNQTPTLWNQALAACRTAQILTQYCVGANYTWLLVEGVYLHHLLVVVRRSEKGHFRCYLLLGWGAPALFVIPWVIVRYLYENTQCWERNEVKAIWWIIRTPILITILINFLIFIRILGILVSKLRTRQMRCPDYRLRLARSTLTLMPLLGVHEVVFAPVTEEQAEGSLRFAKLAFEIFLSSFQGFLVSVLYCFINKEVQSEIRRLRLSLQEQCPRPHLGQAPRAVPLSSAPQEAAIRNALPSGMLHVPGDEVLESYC
Test: BSA-cAMP assay, cells expressing rat GIP receptor
Format: cell-based
Details: Batch 1; BSA-cAMP assay; read-out: rGIPr cAMP activity EC50
This listing pairs molecules with measured EC50.
Hi! Could you send only the number? It should be in nM, unit omitted.

INSERT INTO measurements (molecule, reported_metric, observed_result) VALUES
  ('IP365 (protein) YSEGMHTSDFSKLLERQAIDEFIAWLLKGGAAAGGSGSTASSGSGSATGGGGAATHTCPPC', 'EC50', 0.12),
  ('IP394 (protein) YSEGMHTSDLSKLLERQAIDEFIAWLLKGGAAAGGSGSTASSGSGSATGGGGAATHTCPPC', 'EC50', 0.06),
  ('IP375 (protein) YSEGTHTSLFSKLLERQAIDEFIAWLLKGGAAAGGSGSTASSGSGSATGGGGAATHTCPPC', 'EC50', 0.07),
  ('IP376 (protein) YSEGTFTSLFSKLLERQAIDEFIAWLLKGGAAAGGSGSTASSGSGSATGGGGAATHTCPPC', 'EC50', 0.13);

Read the entry IP315 (protein) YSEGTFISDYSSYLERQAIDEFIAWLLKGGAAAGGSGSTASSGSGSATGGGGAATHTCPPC and write its reported EC50. 0.096
